pKi: −log10 of the molar value.
Please consider the recorded pKi for JNK1α1 (Homo sapiens) in what follows.
Measurement Label: pKi

O=C(CC(c1ccccc1)c1ccccc1)Nc1cc2cc(-c3cn[nH]c3)ccc2cn1 :: 8.30

A = OC1(c2cncnc2)CCC(Nc2cc3cc(-c4cn[nH]c4)ccc3cn2)CC1 (stereo not drawn)
B = Cn1ncc(NC(=O)c2ccc3cnc(N[C@H]4CC[C@H](O)CC4)nc3c2)n1
Task item: Between A and B , whose recorded pKi is greater? Answer with the label corresponding to your selection.
Reply: A

====

Please consider the recorded Ki for JNK1α1 (Homo sapiens) in what follows.
Measurement Label: Ki (µM)

CC(C)[C@@H](CO)NC(=O)c1cccc2cnc(N[C@H]3CC[C@H](O)CC3)nc12 [Example 445] :: 0.11
CCN[C@H]1CC[C@H](Nc2ncc3cccc(OC4CCOC4)c3n2)CC1 (stereo partly shown) [Example 192] :: 1.13
CC(=O)OCC(C)(C)CC(=O)Nc1cc2cc(-c3cn[nH]c3)ccc2cn1 [Example 10] :: 0.042
COc1ccnc(NC(=O)c2ccc3cnc(N[C@H]4CC[C@H](O)CC4)nc3c2)c1 [Example 361] :: 1.81
O[C@H]1CC[C@H](Nc2ncc3cccc(OCC(F)(F)F)c3n2)CC1 [Example 244] :: 0.234
CC(C)C[C@@H](CO)NC(=O)c1ccc2cnc(N[C@H]3CC[C@H](O)CC3)nc2c1 [Example 375] :: 0.107

I = O=C(Cc1c(F)cccc1C(F)(F)F)Nc1cc2cc(-c3cn[nH]c3)ccc2cn1 [Example 33]
II = C[C@@H](CO)NC(=O)c1ccc2cnc(NC3CCCC3)nc2c1 [Example 418]
III = COc1ccc(CC(=O)Nc2cc3cc(-c4cnn(C)c4)ccc3cn2)cc1 [Example 4]
Task item: Highest Ki first, then in falling order down to the smallest. Rank the items, then write their labels in that order.
Reply: II, I, III

====

Biological target: JNK1α1 (Homo sapiens, UniProt P45983)
Construct: catalytic domain containing amino acids 1-364 and N-terminal hexahistidine tag; hexahistidine (His6) (N); made in house; host or cells: E. coli BL21 (DE3)
Sequence (P45983 1-364): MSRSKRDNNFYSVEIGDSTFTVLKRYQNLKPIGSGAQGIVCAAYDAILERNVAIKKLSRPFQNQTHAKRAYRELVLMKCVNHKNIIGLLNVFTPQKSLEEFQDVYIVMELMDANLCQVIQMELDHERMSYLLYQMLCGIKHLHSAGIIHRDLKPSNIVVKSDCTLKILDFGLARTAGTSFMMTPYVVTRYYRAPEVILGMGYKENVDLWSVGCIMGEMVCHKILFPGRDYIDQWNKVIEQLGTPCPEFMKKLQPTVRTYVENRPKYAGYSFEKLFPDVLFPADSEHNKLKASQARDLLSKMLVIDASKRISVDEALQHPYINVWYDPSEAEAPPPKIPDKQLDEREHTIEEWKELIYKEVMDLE
Assay: Coupled spectrophotometric (PK/LDH) JNK1α1 assay: % inhibition and Ki determination
Format: biochemical
Conditions: @10 uM; read-out: % Inhibition JNK-1
Measurement Label: inhibition at 10 µM (%)

Examples from the recorded data:
Cc1ccc(C(C)NC(=O)c2cccc3cnc(N[C@H]4CC[C@H](O)CC4)nc23)cn1 (stereo partly drawn) :: 51
CC(C)c1nc(CNC(=O)c2cccc3cnc(N[C@H]4CC[C@H](O)CC4)nc23)no1 :: 50
O=C(Nc1ccnn1Cc1ccccc1)c1cccc2cnc(N[C@H]3CC[C@H](O)CC3)nc12 :: 36
CN1CCC(Oc2cccc3cnc(N[C@H]4CC[C@H](O)CC4)nc23)C1 (stereo partly drawn) :: 61
CN(C)C(=O)CNC(=O)c1cccc2cnc(N[C@H]3CC[C@H](O)CC3)nc12 :: 49
CCc1cc(CNC(=O)c2cccc3cnc(N[C@H]4CC[C@H](O)CC4)nc23)on1 :: 57
CN1CCC[C@H]1COc1cccc2cnc(N[C@H]3CC[C@H](O)CC3)nc12 :: 62
COc1ccc(F)c(CNc2cc3cc(-c4cn[nH]c4)ccc3cn2)c1 :: 49
C[C@@H](CO)NC(=O)c1ccc2cnc(NC3CCC3)nc2c1 :: 57
Cc1cc(NC(=O)c2cccc3cnc(N[C@H]4CC[C@H](O)CC4)nc23)n(C(C)C)n1 :: 76

P = Cc1nccn1CCNC(=O)c1cccc2cnc(N[C@H]3CC[C@H](O)CC3)nc12
Q = Cc1ccn2cc(CCNC(=O)c3cccc4cnc(N[C@H]5CC[C@H](O)CC5)nc34)nc2n1
R = O=C(Nc1cccnc1N1CCOCC1)c1cccc2cnc(N[C@H]3CC[C@H](O)CC3)nc12
S = c1ncc(-c2ccc(CNc3cc4cc(-c5cn[nH]c5)ccc4cn3)cc2)cn1
Task item: Endpoint returns the given compounds ordered by ascending inhibition at 10 µM. Rank the items, then write their labels in that order.
Reply: S, R, Q, P
(S: 15%, R: 26%, Q: 47%, P: 72%)

I = COc1ccc(CNc2cc3cc(-c4cn[nH]c4)ccc3cn2)cn1
II = CC(C)(CO)NC(=O)c1ccc2cnc(NC3CCCC3)nc2c1
Task item: Which value of inhibition at 10 µM is smaller, the one for I or the one for II ? Answer with the label corresponding to your selection.
Reply: I
